# Test: Absorption maximum (λmax) and log ε of the dye in solution
# Format: physicochemical
# Condition context: CHCl3
λ max. listing for selected compounds.
Lab note: write the figure by itself, no unit.

CCc1cc(-c2cc(-c3ccccc3)cc(-c3ccccc3)[s+]2)cc(CC)c1N [Example 18]: 602
CCN(Cc1ccccc1)c1ccc(-c2cc(-c3ccccc3)cc(-c3ccccc3)[s+]2)cc1 [Example 8]: 620
CCN(Cc1ccccc1)c1ccc(-c2cc(-c3ccccc3)cc(-c3ccccc3)[s+]2)cc1 [Example 9]: 615

Incoming: Please give the measured λ max. for this compound: c1ccc(-c2cc(-c3ccccc3)[s+]c(-c3ccc(NC4CCCCC4)cc3)c2)cc1 [Example 19]
Outgoing: 634

---

λ max. listing for selected molecules.
# Test: Absorption maximum (λmax) and log ε of the dye in solution
# Type: physicochemical
# Condition context: CHCl3
Lab note: write the figure by itself, no unit.

Below, each entry is followed by its recorded λ max. result.
Nc1ccc(-c2cc(-c3ccccc3)cc(-c3ccccc3)[s+]2)cc1 [Example 2]: 592
Cc1cc(-c2cc(-c3ccccc3)cc(-c3ccccc3)[s+]2)cc(C)c1N [Example 17]: 600
COc1cc(N)ccc1-c1cc(-c2ccccc2)cc(-c2ccccc2)[s+]1 [Example 23]: 586
CNc1ccc(-c2cc(-c3ccccc3)cc(-c3ccccc3)[s+]2)cc1 [Example 4]: 633

Incoming: Please give the measured λ max. for this molecule: CN(C)c1ccc(-c2cc(-c3ccccc3)cc(-c3ccccc3)[s+]2)cc1 [Example 5]
Outgoing: 624

---

# Test: Absorption maximum (λmax) and log ε of the dye in solution
# Format: physicochemical
# Condition context: CHCl3
log ε max. listing for selected compounds.
Lab note: write the figure by itself, no unit.

Below, each entry is followed by its recorded log ε max. result.
CN(C)c1ccc(-c2cc(-c3ccccc3)cc(-c3ccccc3)[s+]2)cc1 [Example 6]: 4.86
Nc1ccc(-c2cc(-c3ccccc3)cc(-c3ccccc3)[s+]2)c(Cl)c1 [Example 27]: 4.00

Incoming: Please give the measured log ε max. for this compound: c1ccc(CN(Cc2ccccc2)c2ccc(-c3cc(-c4ccccc4)cc(-c4ccccc4)[s+]3)cc2)cc1 [Example 11]
Outgoing: 4.50

Incoming: Please give the measured log ε max. for this compound: Cc1cc(N)ccc1-c1cc(-c2ccccc2)cc(-c2ccccc2)[s+]1 [Example 14]
Outgoing: 4.30

Incoming: Please give the measured log ε max. for this compound: Nc1ccc(-c2cc(-c3ccccc3)cc(-c3ccccc3)[s+]2)cc1 [Example 2]
Outgoing: 4.34

---

# Test: Absorption maximum (λmax) and log ε of the dye in solution
# Type: physicochemical
# Condition context: EtOH
λ max. listing for selected compounds.
Lab note: write the figure by itself, no unit.

Below, each entry is followed by its recorded λ max. result.
COc1cc(N)ccc1-c1cc(-c2ccccc2)cc(-c2ccccc2)[s+]1 [Example 24]: 566
Nc1ccc(-c2cc(-c3ccccc3)cc(-c3ccccc3)[s+]2)cc1 [Example 1]: 584
Cc1cc(N)ccc1-c1cc(-c2ccccc2)cc(-c2ccccc2)[s+]1 [Example 15]: 556
CNc1ccc(-c2cc(-c3ccccc3)cc(-c3ccccc3)[s+]2)cc1 [Example 3]: 596
COc1cc(-c2cc(-c3ccccc3)cc(-c3ccccc3)[s+]2)ccc1N [Example 22]: 588
Cc1cc(-c2cc(-c3ccccc3)cc(-c3ccccc3)[s+]2)ccc1N [Example 13]: 596

Next compound, λ max. to be filled in.
Incoming: Please give the measured λ max. for this compound: Nc1ccc(-c2cc(-c3ccccc3)cc(-c3ccccc3)[s+]2)c(Cl)c1 [Example 28]
Outgoing: 588

---

# Test: Absorption maximum (λmax) and log ε of the dye in solution
# Assay type: physicochemical
# Condition context: EtOH
Readout label: log ε max.
Lab note: write the figure by itself, no unit.

Below, each entry is followed by its recorded log ε max. result.
COc1cc(-c2cc(-c3ccccc3)cc(-c3ccccc3)[s+]2)ccc1N: 4.19
COc1cc(N)ccc1-c1cc(-c2ccccc2)cc(-c2ccccc2)[s+]1: 4.16
CNc1ccc(-c2cc(-c3ccccc3)cc(-c3ccccc3)[s+]2)cc1: 4.38
Cc1cc(N)ccc1-c1cc(-c2ccccc2)cc(-c2ccccc2)[s+]1: 4.16
Cc1cc(-c2cc(-c3ccccc3)cc(-c3ccccc3)[s+]2)ccc1N: 4.32
Nc1ccc(-c2cc(-c3ccccc3)cc(-c3ccccc3)[s+]2)c(Cl)c1: 4.06

Next compound, log ε max. to be filled in.
Incoming: Please give the measured log ε max. for this compound: Nc1ccc(-c2cc(-c3ccccc3)cc(-c3ccccc3)[s+]2)cc1
Outgoing: 4.21

---

# Test: Absorption maximum (λmax) and log ε of the dye in solution
# Type: physicochemical
# Condition context: CHCl3
Readout label: log ε max.
Lab note: write the figure by itself, no unit.

Incoming: Please give the measured log ε max. for this compound: CCN(Cc1ccccc1)c1ccc(-c2cc(-c3ccccc3)cc(-c3ccccc3)[s+]2)cc1 [Example 9]
Outgoing: 5.18

Incoming: Please give the measured log ε max. for this compound: Cc1cc(-c2cc(-c3ccccc3)cc(-c3ccccc3)[s+]2)ccc1N [Example 12]
Outgoing: 4.32

Incoming: Please give the measured log ε max. for this compound: COc1cc(-c2cc(-c3ccccc3)cc(-c3ccccc3)[s+]2)ccc1N [Example 21]
Outgoing: 4.32

Incoming: Please give the measured log ε max. for this compound: CCc1cc(-c2cc(-c3ccccc3)cc(-c3ccccc3)[s+]2)cc(CC)c1N [Example 18]
Outgoing: 4.32

---

# Test: Absorption maximum (λmax) and log ε of the dye in solution
# Format: physicochemical
# Condition context: CHCl3
log ε max. listing for selected compounds.

c1ccc(-c2cc(-c3ccccc3)[s+]c(-c3ccc(NC4CCCCC4)cc3)c2)cc1: 4.31
COc1cc(-c2cc(-c3ccccc3)cc(-c3ccccc3)[s+]2)c(OC)cc1N: 4.36

Incoming: Please give the measured log ε max. for this compound: OCCN(CCO)c1ccc(-c2cc(-c3ccccc3)cc(-c3ccccc3)[s+]2)cc1
Outgoing: 4.31

Incoming: Please give the measured log ε max. for this compound: CNc1ccc(-c2cc(-c3ccccc3)cc(-c3ccccc3)[s+]2)cc1
Outgoing: 4.55

---

# Test: Absorption maximum (λmax) and log ε of the dye in solution
# Assay type: physicochemical
# Condition context: CHCl3
log ε max. listing for selected compounds.
Lab note: write the figure by itself, no unit.

CCN(CC)c1ccc(-c2cc(-c3ccccc3)cc(-c3ccccc3)[s+]2)cc1: 4.50
CCN(Cc1ccccc1)c1ccc(-c2cc(-c3ccccc3)cc(-c3ccccc3)[s+]2)cc1 [Example 10]: 5.05
CN(C)c1ccc(-c2cc(-c3ccccc3)cc(-c3ccccc3)[s+]2)cc1 [Example 5]: 4.77
CCN(Cc1ccccc1)c1ccc(-c2cc(-c3ccccc3)cc(-c3ccccc3)[s+]2)cc1 [Example 8]: 4.53
Cc1cc(-c2cc(-c3ccccc3)cc(-c3ccccc3)[s+]2)cc(C)c1N: 4.32
COc1cc(N)ccc1-c1cc(-c2ccccc2)cc(-c2ccccc2)[s+]1: 4.27

Next compound, log ε max. to be filled in.
Incoming: Please give the measured log ε max. for this compound: c1ccc(Nc2ccc(-c3cc(-c4ccccc4)cc(-c4ccccc4)[s+]3)cc2)cc1
Outgoing: 4.39
